Give measured Ki for each item. Keep answers brief.
# studySystem: Tryptase (Homo sapiens, UniProt Q9BZJ3+Q15661+Q9NRR2)
# assaySummary: Inhibition of Tryptase in human mast cells
# Assay type: cell-based
One number for each entry, in µM.

Worked examples follow.
N=C(N)c1ccc(CC(=O)N2CCN(C(=O)O[C@H]3CCC[C@@H](OC(=O)N4CCN(C(=O)NCCC5CCNCC5)CC4)CCC3)CC2)cc1 ... 0.0067
N=C(N)c1ccc(C(=O)NCC2CCN(C(=O)O[C@H]3CCC[C@@H](OC(=O)N4CCC(CNC(=O)c5ccc(C(=N)N)cc5)CC4)CCC3)CC2)cc1 ... 0.00085
NCC1CCN(C(=O)NCC2CCN(C(=O)OCc3ccc(COC(=O)N4CCC(CNC(=O)N5CCC(CN)CC5)CC4)cc3)CC2)CC1 ... 0.024

Look up Ki for the entries below, preserving their order.
1. COC(=O)NC(=N)c1ccc(CNC(=O)N2CCN(C(=O)O[C@H]3CCC[C@@H](OC(=O)N4CCN(C(=O)NCCC5CCNCC5)CC4)CCC3)CC2)cc1
2. N=C(N)N1CCC(CNC(=O)CNC(=O)OCc2ccc(COC(=O)NCC(=O)NCC3CCN(C(=N)N)CC3)cc2)CC1
3. N=C(N)c1ccc(C(=O)NCC2CCN(C(=O)O[C@H]3CCC[C@@H](OC(=O)N4CCN(C(=O)CCCC5CCNCC5)CC4)CCC3)CC2)cc1
4. N=C(N)c1ccc(C(=O)NCC2CCN(C(=O)O[C@H]3CCC[C@@H](OC(=O)N4CCN(C(=O)NCCC5CCNCC5)CC4)CCC3)CC2)cc1
5. N=C(N)c1ccc(S(=O)(=O)NCC2CCN(C(=O)O[C@H]3CCC[C@@H](OC(=O)N4CCN(C(=O)NCCC5CCNCC5)CC4)CCC3)CC2)cc1
6. N=C(N)c1ccc(CNC(=O)N2CCN(C(=O)O[C@H]3CCC[C@@H](OC(=O)N4CCN(C(=O)NCCC5CCNCC5)CC4)CCC3)CC2)cc1
7. N=C(N)c1ccc(CNC(=O)N2CCN(C(=O)O[C@H]3CCC[C@@H](OC(=O)N4CCN(C(=O)CCCC5CCNCC5)CC4)CCC3)CC2)cc1

[0.0406, 0.155, 0.0164, 0.016, 0.028, 0.00091, 0.00112]
